Entries and their log10 of Kd values follow.
tested target: HLA-A*33:01
assay overview: IEDB peptide-MHC binding, purified MHC/competitive/radioactivity; filed as Kd, often an IC50 or EC50 that approximates it; bounds were set here for any values at or beyond the usual limits of such assays
measurement parameters: source organism: SARS coronavirus Tor2
Would you kindly interpret these values as log10 of Kd expressed in µM?

chain | log10 of Kd
SQMLLIVLK | 0.70
KFTTSLSLHK | 0.91
VLCNSQTSLR | 0.07
TVYDDAARR | 0.70
GVIADYNYK | 0.69

For the sequence STNLCTHSFR , what log10 of Kd is on record?
-2.05

For the sequence VTYVPSQER , what log10 of Kd is on record?
-0.47

For the sequence DFYDFAVSK , what log10 of Kd is on record?
-2.03

For the sequence MSLSEQLRK , what log10 of Kd is on record?
0.67

For the sequence SFYYIWKSY , what log10 of Kd is on record?
-0.11

For the sequence VVPDYGTYK , what log10 of Kd is on record?
1.24

For the sequence FVASFRLFAR , what log10 of Kd is on record?
-1.85

For the sequence QSADASTFLK , what log10 of Kd is on record?
0.72

For the sequence AVHDFFKFR , what log10 of Kd is on record?
-0.56
